Where do the numbers come from? From patent US9073940B2.

- Test system: 4 PI3K isoforms (Human recombinant GST-PI3K)
- Protocol Notes: PI3K scintillation proximity assay, best IC50 obtained with the four isoforms (alpha, beta, delta, gamma)
- Format: biochemical
- Particulars: best IC50 obtained with the four isoforms of PI3K; read-out: Best potency measured on the 4 PI3K isoforms
Measured Quantity: log10 of IC50 (log10 of the value in nM)
In plain terms, each number is the log10 of measured IC50 in nM.

Query: I have this molecule here, CC1CN(C(=O)c2nn(-c3ccccc3)c3c2CS(=O)(=O)c2ccccc2-3)CCO1 (stereo not shown) , and I need its recorded log10 of IC50.
Reply: 3.33

More entries:
Query: I have this molecule here, `O=C(c1nn(C2CCN(CCN3CCOCC3)CC2)c2c1CS(=O)(=O)c1ccccc1-2)N1CCOCC1` , and I need its recorded log10 of IC50.
Reply: 2.57

Query: Another molecule to check: `CN(C)Cc1ccc(-n2nc(C(=O)N3CCOCC3)c3c2-c2ccccc2S(=O)(=O)C3)cc1`
Reply: 1.63

Query: Another molecule to check: CC(C)(C)OC(=O)N1CCCC(n2nc(C(=O)N3CCOCC3)c3c2-c2ccccc2S(=O)(=O)C3)CC1 (stereo not shown)
Reply: 2.92

====

// IC50 lookup, one value per entry
- Test system: 4 PI3K isoforms (Human recombinant GST-PI3K)
- Protocol Notes: PI3K scintillation proximity assay, best IC50 obtained with the four isoforms (alpha, beta, delta, gamma)
- Format: biochemical
- Particulars: best IC50 obtained with the four isoforms of PI3K; read-out: Best potency measured on the 4 PI3K isoforms
Enter your answer as a number in nM; do not include the unit.

Examples with answers:
Query: I have this molecule here, `CN1CCC(Cn2nc(C(=O)N3CCOCC3)c3c2-c2ccccc2S(=O)(=O)C3)CC1` , and I need its recorded IC50.
Reply: 2650

Query: Another molecule to check: COC1CCN(CCN2CCC[C@H](n3nc(C(=O)N4CCOCC4)c4c3-c3ccccc3S(=O)(=O)C4)C2)CC1 (stereo in doubt)
Reply: 21

Query: Another molecule to check: `O=C(c1nn(Cc2ccccc2)c2c1CS(=O)(=O)c1ccccc1-2)N1CCOCC1`
Reply: 1190

Moving on to the next molecule.
Query: I have this molecule here, COC1CCN(CCN2CCC[C@H](n3nc(C(=O)N4CCOCC4)c4c3-c3ccc(F)cc3S(=O)(=O)C4)C2)CC1 (stereo in doubt) , and I need its recorded IC50.
Reply: 13

====

// pIC50 lookup, one value per entry
- Test system: 4 PI3K isoforms (Human recombinant GST-PI3K)
- Protocol Notes: PI3K scintillation proximity assay, best IC50 obtained with the four isoforms (alpha, beta, delta, gamma)
- Type: biochemical
- Particulars: best IC50 obtained with the four isoforms of PI3K; read-out: Best potency measured on the 4 PI3K isoforms
A value of pIC50 is the negative decimal logarithm of a concentration given in moles per litre.

Examples with answers:
Query: I have this molecule here, O=C(c1nn([C@H]2CCCN(CCF)C2)c2c1CS(=O)(=O)c1ccccc1-2)N1CCOCC1 (single isomer, unassigned) , and I need its recorded pIC50.
Reply: 6.70

Query: Another molecule to check: `O=C(c1nn(-c2cccc(CN3CCC(F)(F)CC3)c2)c2c1CS(=O)(=O)c1ccccc1-2)N1CCOCC1`
Reply: 6.25

Query: Another molecule to check: O=C(c1nn(C2CCN(C3CCOCC3)C2)c2c1CS(=O)(=O)c1c(F)cccc1-2)N1CCOCC1 (stereo not shown)
Reply: 7.54

Query: Another molecule to check: `O=C(c1nn(C2CCCCC2)c2c1CS(=O)(=O)c1ccccc1-2)N1CCOCC1`
Reply: 6.87

More entries:
Query: I have this molecule here, `COc1ccc2c(c1)S(=O)(=O)Cc1c(C(=O)N3CCOCC3)nn(-c3ccccc3)c1-2` , and I need its recorded pIC50.
Reply: 6.46

Query: Another molecule to check: O=C(c1nn(C2CCN(CC3CCOC3)C2)c2c1CS(=O)(=O)c1c(F)cccc1-2)N1CCOCC1 (stereo not shown)
Reply: 7.24

Query: Another molecule to check: `O=C(c1nn(CC2CCNCC2)c2c1CS(=O)(=O)c1ccccc1-2)N1CCOCC1`
Reply: 6.27
